molecular target: Matrix metalloproteinase-14 (Homo sapiens, UniProt P50281); test: Inhibition of human matrix metalloprotease-14 expressed in Escherichia coli

- SMILES_REPRESENTATION: "CNC(=O)[C@H](Cc1ccccc1)NC(=O)[C@H](CC(C)C)[C@H](CSc1cccs1)C(=O)NO"
  MEASURED_TARGET: "Matrix metalloproteinase-14 (Homo sapiens, UniProt P50281)"
  IC50 (nM): 47

====

molecular target: Aminopeptidase N (Homo sapiens, UniProt P15144)
Sequence (P15144 whole entry): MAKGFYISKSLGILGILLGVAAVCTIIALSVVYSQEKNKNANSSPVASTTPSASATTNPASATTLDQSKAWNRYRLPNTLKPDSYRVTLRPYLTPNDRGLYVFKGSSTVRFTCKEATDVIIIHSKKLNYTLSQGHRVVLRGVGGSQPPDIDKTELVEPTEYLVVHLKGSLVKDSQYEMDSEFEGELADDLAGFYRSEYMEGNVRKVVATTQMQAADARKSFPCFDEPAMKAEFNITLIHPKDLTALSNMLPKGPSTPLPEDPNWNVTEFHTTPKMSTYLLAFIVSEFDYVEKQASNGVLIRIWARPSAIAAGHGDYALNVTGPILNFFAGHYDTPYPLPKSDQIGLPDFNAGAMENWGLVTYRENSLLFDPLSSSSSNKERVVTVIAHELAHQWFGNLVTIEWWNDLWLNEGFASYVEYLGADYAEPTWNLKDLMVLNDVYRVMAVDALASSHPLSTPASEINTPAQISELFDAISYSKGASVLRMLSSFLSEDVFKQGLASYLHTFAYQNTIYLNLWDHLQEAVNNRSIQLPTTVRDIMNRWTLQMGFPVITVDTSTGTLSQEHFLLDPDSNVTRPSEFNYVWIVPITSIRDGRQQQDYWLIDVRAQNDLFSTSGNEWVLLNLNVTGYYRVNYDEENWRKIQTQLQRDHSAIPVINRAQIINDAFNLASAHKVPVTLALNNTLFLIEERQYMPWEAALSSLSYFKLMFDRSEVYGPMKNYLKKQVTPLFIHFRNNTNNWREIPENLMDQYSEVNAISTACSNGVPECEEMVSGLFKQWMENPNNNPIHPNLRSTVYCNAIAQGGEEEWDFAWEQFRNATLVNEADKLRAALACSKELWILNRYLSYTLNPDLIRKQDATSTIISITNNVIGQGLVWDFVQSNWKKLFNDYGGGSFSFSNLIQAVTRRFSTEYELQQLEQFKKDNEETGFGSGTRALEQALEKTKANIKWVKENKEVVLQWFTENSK
MEASUREMENT_NAME: Ki (µM)

- SMILES_REPRESENTATION: "O=C(CSc1ccc2ccccc2c1)NO"
  UNIT_ANNOTATION: "µM"
  RECORDED_MEASUREMENT: 3.5

Data origin, for the record: ChEMBL document CHEMBL1145216
